# inhibition at 0.5 µM listing for each entry below
biological target: human Cereblon WT GST-tagged protein (Homo sapiens, UniProt Q96SW2); construct: purchased CISBIO 64BDCRBNPEH; assay: CRBN-binding affinity, HTRF (CEREBLON BINDING kit); settings: read-out: Inhibition Rate at 0.5 µM (%)
Sequence (Q96SW2 whole entry): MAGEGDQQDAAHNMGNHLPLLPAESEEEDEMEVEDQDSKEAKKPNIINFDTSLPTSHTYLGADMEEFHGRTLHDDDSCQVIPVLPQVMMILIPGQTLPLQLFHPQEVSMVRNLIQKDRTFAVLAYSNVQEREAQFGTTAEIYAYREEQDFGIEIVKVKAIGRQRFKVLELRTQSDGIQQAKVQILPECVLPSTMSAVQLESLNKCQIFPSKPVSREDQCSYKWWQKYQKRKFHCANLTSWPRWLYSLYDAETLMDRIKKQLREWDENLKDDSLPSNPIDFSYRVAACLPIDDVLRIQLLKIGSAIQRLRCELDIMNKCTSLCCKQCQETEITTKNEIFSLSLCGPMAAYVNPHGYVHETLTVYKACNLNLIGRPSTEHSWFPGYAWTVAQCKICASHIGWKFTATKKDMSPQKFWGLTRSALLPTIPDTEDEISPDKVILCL

compound: O=C1CCC(N2Cc3c(CN4CC=C(c5ncnc6sccc56)CC4)cccc3C2=S)C(=O)N1 (stereo not shown) [GT-08937]
inhibition at 0.5 µM: 60 to 80%
//
compound: Cn1cc(C2CCN(Cc3cccc4c3CN(C3CCC(=O)NC3=O)C4=S)CC2)c2ccc(F)cc21 (stereo not shown) [GT-08844]
inhibition at 0.5 µM: 40 to 53%
//
compound: O=C1CCC(N2Cc3c(CN4CCN(Cc5ccccc5-c5ccc(Cl)cc5)CC4)cccc3C2=S)C(=O)N1 (stereo not shown) [GT-08295]
inhibition at 0.5 µM: 30 to 40%
//
compound: O=C1CCC(N2Cc3c(CN4CCC(c5cccc6c(F)cccc56)CC4)cccc3C2=S)C(=O)N1 (stereo not shown) [GT-08855]
inhibition at 0.5 µM: 30 to 40%
//
compound: O=C1CCC(N2Cc3cc(CN4CCC(c5cccc(F)c5F)CC4)ccc3C2=S)C(=O)N1 (stereo not shown) [GT-08331]
inhibition at 0.5 µM: 40 to 53%

INPUT: What value of measured inhibition at 0.5 µM is listed for O=C1CCC(N2Cc3cc(CN4CCC(c5cccc(F)c5Cl)CC4)ccc3C2=S)C(=O)N1 (stereo not shown) [GT-08330] ?
OUTPUT: 40 to 53%

INPUT: Same lookup for O=C1CCC(N2Cc3cc(CN4CC(c5ccnc6cc(F)ccc56)C4)ccc3C2=S)C(=O)N1 (stereo not shown) [GT-09279] , please.
OUTPUT: 60 to 80%

###

target: human Cereblon WT GST-tagged protein (Homo sapiens, UniProt Q96SW2); construct: purchased CISBIO 64BDCRBNPEH; test: CRBN-binding affinity, HTRF (CEREBLON BINDING kit); settings: read-out: Inhibition Rate at 2 µM (%)
# inhibition at 2 µM listing for each entry below

compound: O=C1CCC(N2Cc3c(CN4CCN(c5nc(Cl)nc6ccsc56)CC4)cccc3C2=S)C(=O)N1 (centres unmarked)
measured-value: 80 to 100%
--
compound: Cc1cscc1C1=CCN(Cc2cccc3c2CN(C2CCC(=O)NC2=O)C3=S)CC1 (centres unmarked)
measured-value: 60 to 80%
--
compound: O=C1CCC(N2Cc3c(CN4CC5CCC(C4)N5c4cccc(Cl)c4Cl)cccc3C2=S)C(=O)N1 (centres unmarked)
measured-value: 53 to 60%
--
compound: O=C1CCC(N2Cc3cc(CN4CCN(c5ccccn5)CC4)ccc3C2=S)C(=O)N1 (centres unmarked)
measured-value: 80 to 100%
--
compound: O=C1CCC(N2Cc3c(CN4CCN(c5noc6cc(F)ccc56)CC4)cccc3C2=S)C(=O)N1 (centres unmarked)
measured-value: 60 to 80%

INPUT: What value of measured inhibition at 2 µM is listed for CC1(C)CCC(CN2CC3CCC(C2)N3Cc2cccc3c2CN(C2CCC(=O)NC2=O)C3=S)=C(c2ccc(Cl)cc2)C1 (centres unmarked) ?
OUTPUT: 60 to 80%

INPUT: Same lookup for O=C1CCC(N2Cc3cc(CN4CCN(c5ccncc5Br)CC4)ccc3C2=S)C(=O)N1 (centres unmarked) , please.
OUTPUT: 80 to 100%

INPUT: Same lookup for O=C1CCC(N2Cc3c(CN4CCC(c5ccsc5)CC4)cccc3C2=S)C(=O)N1 (centres unmarked) , please.
OUTPUT: 60 to 80%

###

# inhibition at 0.5 µM listing for each entry below
target: human Cereblon WT GST-tagged protein (Homo sapiens); construct: purchased CISBIO 64BDCRBNPEH; test: CRBN-binding affinity, HTRF (CEREBLON BINDING kit); settings: read-out: Inhibition Rate at 0.5 µM (%)

compound: O=C1CCC(N2Cc3cc(CN4CCC(c5cccc(C(F)(F)F)c5)CC4)ccc3C2=S)C(=O)N1 (stereo not shown) [GT-08623]
inhibition at 0.5 µM: 40 to 53%
--
compound: O=C1CCC(N2Cc3cc(CN4CCN(c5c(F)cccc5F)CC4)ccc3C2=S)C(=O)N1 (stereo not shown) [GT-08626]
inhibition at 0.5 µM: 60 to 80%
--
compound: O=C1CCC(N2Cc3c(CN4CC5CCC4CN5c4cccc(Cl)c4Cl)cccc3C2=S)C(=O)N1 (stereo not shown) [GT-08469]
inhibition at 0.5 µM: 40 to 53%
--
compound: O=C1CCC(N2Cc3cc(CN4CCN(c5cccs5)CC4)ccc3C2=S)C(=O)N1 (stereo not shown) [GT-08168]
inhibition at 0.5 µM: 80 to 100%
--
compound: O=C1CCC(N2Cc3cc(CN4CCN(c5nsc6cc(F)ccc56)CC4)ccc3C2=S)C(=O)N1 (stereo not shown) [GT-09259]
inhibition at 0.5 µM: 53 to 60%
--
compound: O=C1CCC(N2Cc3c(CN4CCC(N5CCCc6cc(F)ccc65)CC4)cccc3C2=S)C(=O)N1 (stereo not shown) [GT-08851]
inhibition at 0.5 µM: 40 to 53%
--
compound: O=C1CCC(N2Cc3c(CN4CCN(C(c5ccccc5)c5ccccc5)CC4)cccc3C2=S)C(=O)N1 (stereo not shown) [GT-08191]
inhibition at 0.5 µM: 30 to 40%
--
compound: O=C1CCC(N2Cc3cc(CN4CCN(c5nc(N6CCOCC6)nc6ccsc56)CC4)ccc3C2=S)C(=O)N1 (stereo not shown) [GT-09333]
inhibition at 0.5 µM: 60 to 80%
--
compound: O=C1CCC(N2Cc3cc(CN4CCN(c5cc(Cl)cc(Cl)c5)CC4)ccc3C2=S)C(=O)N1 (stereo not shown) [GT-08624]
inhibition at 0.5 µM: 30 to 40%
--
compound: Cc1ccc(N2CCN(Cc3cccc4c3CN(C3CCC(=O)NC3=O)C4=S)CC2)s1 (stereo not shown) [GT-08305]
inhibition at 0.5 µM: 60 to 80%

INPUT: Provide the documented inhibition at 0.5 µM with human Cereblon WT GST-tagged protein (Homo sapiens) as the system for Cc1cc(N2CCN(Cc3cccc4c3CN(C3CCC(=O)NC3=O)C4=S)CC2)cs1 (stereo not shown) [GT-08298]
OUTPUT: 60 to 80%

INPUT: Same lookup for Cc1nc(C2CCN(Cc3ccc4c(c3)CN(C3CCC(=O)NC3=O)C4=S)CC2)c2c3c(sc2n1)CCC3 (stereo not shown) [GT-09312] , please.
OUTPUT: 60 to 80%

INPUT: Same lookup for O=C1CCC(N2Cc3c(CN4CCC(c5cccc(F)c5F)CC4)cccc3C2=S)C(=O)N1 (stereo not shown) [GT-08322] , please.
OUTPUT: 30 to 40%

###

tested on: Human malignant melanoma cell line: A375; assay: Tumor cell proliferation inhibition (CellTiter-Meiluncell luminescent cell viability assay); conditions: A-375, 96 h, read-out: Inhibition Rate at 500 nM (%)
# inhibition at 0.5 µM listing for each entry below

Recorded results for 4 molecules are shown here.
molecule: Cc1cc2c(C3=CCN(Cc4ccc5c(c4)CN(C4CCC(=O)NC4=O)C5=S)CC3)ncnc2s1 (centres unmarked) [GT-09316]
measured-value: 80 to 100%

molecule: O=C1CCC(N2Cc3cc(CN4CC=C(c5ncnc6sc7c(c56)CCCC7)CC4)ccc3C2=S)C(=O)N1 (centres unmarked) [GT-09324]
measured-value: 80 to 100%

molecule: Cc1nc(C2=CCN(Cc3ccc4c(c3)CN(C3CCC(=O)NC3=O)C4=S)CC2)c2ccsc2n1 (centres unmarked) [GT-09322]
measured-value: 80 to 100%

molecule: O=C1CCC(N2Cc3cc(CN4CC=C(c5ncc6ccsc6n5)CC4)ccc3C2=S)C(=O)N1 (centres unmarked) [GT-09327]
measured-value: 80 to 100%

INPUT: Provide the documented inhibition at 0.5 µM with Human malignant melanoma cell line: A375 as the system for Nc1cccc2c1C(=O)N(C1CCC(=O)NC1=O)C2=O (centres unmarked) [pomalidomide, reference compound]
OUTPUT: 5 to 10%

INPUT: Same lookup for Nc1cccc2c1CN(C1CCC(=O)NC1=O)C2=O (centres unmarked) [lenalidomide, reference compound] , please.
OUTPUT: 5 to 10%

INPUT: Same lookup for O=C1CCC(N2Cc3cc(CN4CC=C(c5ncnc6sc7c(c56)CCC7)CC4)ccc3C2=S)C(=O)N1 (centres unmarked) [GT-09325] , please.
OUTPUT: 80 to 100%

INPUT: Same lookup for O=C1CCC(N2Cc3cc(CN4CC=C(c5ncnc6sc(-c7ccccc7)cc56)CC4)ccc3C2=S)C(=O)N1 (centres unmarked) [GT-09319] , please.
OUTPUT: 80 to 100%

###

molecular target: human Cereblon WT GST-tagged protein (Homo sapiens); construct: purchased CISBIO 64BDCRBNPEH; assay: CRBN-binding affinity, HTRF (CEREBLON BINDING kit); details: read-out: Inhibition Rate at 2 µM (%)
# inhibition at 2 µM listing for each entry below

Recorded results for 4 compounds are shown here.
compound: O=C1CCC(N2Cc3cc(CN4CCN(c5noc6ccncc56)CC4)ccc3C2=S)C(=O)N1 (centres unmarked)
inhibition at 2 µM: 80 to 100%
--
compound: O=C1CCC(N2Cc3c(CN4CCC(N5CCc6cc(F)ccc65)CC4)cccc3C2=S)C(=O)N1 (centres unmarked)
inhibition at 2 µM: 80 to 100%
--
compound: O=C1CCC(N2Cc3c(CN4CCN(c5cccs5)CC4)cccc3C2=S)C(=O)N1 (centres unmarked)
inhibition at 2 µM: 80 to 100%
--
compound: CC1(C)CCC(CN2C3CC2CN(Cc2cccc4c2CN(C2CCC(=O)NC2=O)C4=S)C3)=C(c2ccc(Cl)cc2)C1 (centres unmarked)
inhibition at 2 µM: 60 to 80%

INPUT: What value of measured inhibition at 2 µM is listed for O=C1CCC(N2Cc3c(CN4CC=C(c5n[nH]c6cc(F)ccc56)CC4)cccc3C2=S)C(=O)N1 (centres unmarked) ?
OUTPUT: 80 to 100%

These entries and their values trace back to patent EP4745135A1.
